Origin of measurements: patent US7718670B2

parameter: melting point (°C)

O=C(NC1C[N+]2(CCCOc3ccccc3)CCC1CC2)C1(O)c2ccccc2-c2ccccc21.[Br-] (stereo not shown) = 264

a: C[N+]12CCC(CC1)C(NC(=O)C1c3ccccc3Oc3ccccc31)C2.[Br-] (stereo not shown)
b: O=C(N[C@H]1CN2CCC1CC2)C(Cc1ccccc1)c1ccccc1 (stereo partly shown)
// query Which value of melting point is numerically greater: that of a or that of b ? Write down the label attached to your selection.
// result a

====

Overview of reported melting point across a group of molecules:

C=CCC(O)(C(=O)N[C@H]1CN2CCC1CC2)c1cccs1 (stereo partly shown) = 54.4 to 58.3 °C
O=C(N[C@H]1CN2CCC1CC2)C(O)(c1ccccc1)C1CCCC1 (stereo partly shown) = 69.8 to 73.3 °C
CCCCC(C(=O)N[C@H]1CN2CCC1CC2)c1ccccc1 (stereo partly shown) = 136 °C

Lab note: next molecule to report on.
// query Which melting point value is on record for C[N+]12CCC(CC1)C(NC(=O)C1(O)c3ccccc3-c3ccccc31)C2.[Br-] (stereo not shown) ?
// result 197.5 to 203.6 °C
